Values were extracted from ChEMBL document CHEMBL1127710.

Each record here notes measured Ki.
target: Phosphodiesterase 4 (Homo sapiens, UniProt P27815+Q08499+Q07343+Q08493); test: Inhibition of cAMP-specific Phosphodiesterase 4 (PDE IV); type: protein assay
Response body: numeric value in µM, unit text excluded.

Compound	Tested system	Measured quantity	Recorded result
O=C1CC(c2cc(OC3CCCC3)c3occc3c2)CN1 (stereo unspecified)	Phosphodiesterase 4 (Homo sapiens, UniProt P27815+Q08499+Q07343+Q08493)	Ki	0.26
O=C1CC(c2ccc3c(c2)OC2(CCCCC2)O3)CN1 (stereo unspecified)	Phosphodiesterase 4 (Homo sapiens, UniProt P27815+Q08499+Q07343+Q08493)	Ki	63.9
O=C1CC(c2cc3c(c(OC4CCCC4)c2)OCC3)CN1 (stereo unspecified)	Phosphodiesterase 4 (Homo sapiens, UniProt P27815+Q08499+Q07343+Q08493)	Ki	3.69

Next compound, Ki to be filled in.
I have this compound here, O=C1CC(c2cc3c(c(OC4CCCC4)c2)OCCC3)CN1 (stereo unspecified) , and I need its recorded Ki.
1.17
